Test system: Mono-Methyl Arginine in RKO cells
Experiment: RKO Methylation Assay (In Cell Western)
Format: cell-based
Conditions: Homo sapiens, 72 hours, percent activation
ATTRIBUTE_MEASURED: EC30

Incoming: Please tell me: EC30 of CN(CCN)Cc1c[nH]nc1-c1ccncc1 [Compound 9] , system Mono-Methyl Arginine in RKO cells?
Outgoing: 3.01 to 12 µM

Incoming: Moving on to the next molecule: COc1ccncc1-c1n[nH]cc1CN(C)CCN [Compound 16]
Outgoing: > 12 µM

Incoming: What do we get for CNCCN(C)Cc1c[nH]nc1-c1ccc(N(C)C(C)C)nc1 [Compound 33] ?
Outgoing: < 3 µM

Incoming: Please answer likewise for CC(C)Oc1ccc(-c2n[nH]cc2CN(C)CCN)cn1 [Compound 22]
Outgoing: < 3 µM

Incoming: CN(CCN)Cc1c[nH]nc1-c1cncc(C#N)c1 [Compound 18] ?
Outgoing: > 12 µM

====

Provide the reported pIC50 of each item.
Target: human PRMT1 (Homo sapiens, UniProt Q99873)
Sequence (Q99873 with tags, fused parts or gaps): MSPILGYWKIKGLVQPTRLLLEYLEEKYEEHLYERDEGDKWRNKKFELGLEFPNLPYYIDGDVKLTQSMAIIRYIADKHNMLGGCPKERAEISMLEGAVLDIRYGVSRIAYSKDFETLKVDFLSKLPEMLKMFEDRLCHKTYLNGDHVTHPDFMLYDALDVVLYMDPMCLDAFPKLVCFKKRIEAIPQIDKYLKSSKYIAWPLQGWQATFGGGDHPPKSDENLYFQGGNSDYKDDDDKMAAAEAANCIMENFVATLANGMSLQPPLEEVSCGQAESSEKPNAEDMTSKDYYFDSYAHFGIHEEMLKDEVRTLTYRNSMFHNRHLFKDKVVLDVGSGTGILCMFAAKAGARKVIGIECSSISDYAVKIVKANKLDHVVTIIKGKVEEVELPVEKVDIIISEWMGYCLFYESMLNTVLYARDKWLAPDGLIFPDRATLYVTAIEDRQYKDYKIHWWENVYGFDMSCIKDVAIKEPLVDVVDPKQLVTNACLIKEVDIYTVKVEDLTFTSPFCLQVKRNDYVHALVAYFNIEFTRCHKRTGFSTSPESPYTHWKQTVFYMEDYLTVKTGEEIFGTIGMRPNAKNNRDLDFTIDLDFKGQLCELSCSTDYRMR
pIC50: −log10 of the molar value.

Incoming: API: value(readout=pIC50, system=human PRMT1 (Homo sapiens, UniProt Q99873)) for record `CN(CCN)Cc1c[nH]nc1-c1cccnc1`
Outgoing: 6.00 to 7.00

Incoming: Same for `CN(CCN)Cc1c[nH]nc1-c1cncc(C#N)c1`
Outgoing: 6.00 to 7.00

Incoming: Next record, please: `CC(C)Oc1ccc(-c2n[nH]cc2CN(C)CCN)cn1`
Outgoing: ≥ 7.00

Incoming: Moving on to `CN(CCN)Cc1c[nH]nc1-c1cnccc1C(F)(F)F`
Outgoing: 5.52 to 6.00

Incoming: Try `CN(CCN)Cc1c[nH]nc1-c1cncc(F)c1` next.
Outgoing: ≥ 7.00

====

Target: human PRMT8 (Homo sapiens, UniProt Q9NR22)
Construct: Full-length human PRMT8 (NM_019854.4) isoform 1 transcript clone
Sequence (Q9NR22 whole entry, canonical isoform): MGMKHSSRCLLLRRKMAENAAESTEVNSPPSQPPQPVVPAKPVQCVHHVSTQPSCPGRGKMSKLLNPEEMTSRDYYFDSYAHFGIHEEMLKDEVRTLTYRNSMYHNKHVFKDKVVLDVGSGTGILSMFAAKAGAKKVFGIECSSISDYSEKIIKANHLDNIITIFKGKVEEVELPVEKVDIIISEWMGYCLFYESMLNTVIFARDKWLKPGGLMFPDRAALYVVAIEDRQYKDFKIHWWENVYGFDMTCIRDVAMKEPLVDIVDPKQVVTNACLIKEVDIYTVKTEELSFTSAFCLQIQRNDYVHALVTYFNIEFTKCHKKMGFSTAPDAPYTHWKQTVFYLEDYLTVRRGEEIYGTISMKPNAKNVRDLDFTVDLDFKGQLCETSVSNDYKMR
Assay: PRMT8 Biochemical Assay
Conditions: peptide substrate, 3H-SAM Flashplate assay
ATTRIBUTE_MEASURED: IC50

Incoming: I would be grateful if you could share the reported IC50 for CC(C)CNc1ccc(-c2n[nH]cc2CN(C)CCN)cn1 [Compound 26] .
Outgoing: 1.01 to 3 µM

Incoming: Same lookup for CN(CCN)Cc1c[nH]nc1-c1cncc(S(C)(=O)=O)c1 [Compound 4] , please.
Outgoing: ≥ 10 µM

Incoming: Then this molecule: CN(CCN)Cc1c[nH]nc1-c1cnccc1C(F)(F)F [Compound 29]
Outgoing: ≥ 10 µM

Incoming: Cc1ccncc1-c1n[nH]cc1CN(C)CCN [Compound 17] ?
Outgoing: 3.01 to 10 µM

Incoming: Here is the next molecule: COc1ncccc1-c1n[nH]cc1CN(C)CCN [Compound 15]
Outgoing: 1.01 to 3 µM

Incoming: Now this one: CNCCN(C)Cc1c[nH]nc1-c1ccc(O)nc1 [Compound 2]
Outgoing: ≥ 10 µM

Incoming: Another molecule to check: CN(CCN)Cc1c[nH]nc1-c1cccnc1 [Compound 8]
Outgoing: 1.01 to 3 µM

Incoming: Same lookup for CN(CCN)Cc1c[nH]nc1-c1ccncc1 [Compound 9] , please.
Outgoing: 0.101 to 1 µM

Incoming: Consider next the molecule CCN(CC)c1ccc(-c2n[nH]cc2CN(C)CCN)cn1 [Compound 24] in the same way.
Outgoing: 1.01 to 3 µM

Incoming: Item: CNCCN(C)Cc1c[nH]nc1-c1ccc(N)nc1 [Compound 3]
Outgoing: 3.01 to 10 µM

Incoming: Now the molecule CN(CCN)Cc1c[nH]nc1-c1cncc(C#N)c1 [Compound 18]
Outgoing: 3.01 to 10 µM

Incoming: Would you mind doing COc1cc(-c2n[nH]cc2CN(C)CCN)c(Cl)cn1 [Compound 12] as well?
Outgoing: 3.01 to 10 µM

Incoming: // next record CN(CCN)Cc1c[nH]nc1-c1ccc(C#N)nc1 [Compound 28]
Outgoing: 0.101 to 1 µM

Incoming: // query: Cc1cc(-c2n[nH]cc2CN(C)CCN)cnc1Cl [Compound 10]
Outgoing: 0.101 to 1 µM

Incoming: Cool, now COc1ccc(-c2n[nH]cc2CN(C)CCN)cn1 [Compound 5]
Outgoing: 1.01 to 3 µM

Incoming: Repeat with COc1ncc(Cl)cc1-c1n[nH]cc1CN(C)CCN [Compound 14]
Outgoing: 3.01 to 10 µM

Incoming: Also COc1cc(-c2n[nH]cc2CN(C)CCN)ccn1 [Compound 11] , if possible.
Outgoing: 1.01 to 3 µM

Incoming: Same read-out for CNCCN(C)Cc1c[nH]nc1-c1cccnc1 [Compound 1] ?
Outgoing: 1.01 to 3 µM

Incoming: Now consider CN(CCN)Cc1c[nH]nc1-c1ccc(C(F)(F)F)nc1 [Compound 13] .
Outgoing: 0.101 to 1 µM

Incoming: Param item: CN(CCN)Cc1c[nH]nc1-c1ccccn1 [Compound 27]
Outgoing: ≥ 10 µM

Incoming: Now give it for CN(CCN)Cc1c[nH]nc1-c1cncc(F)c1 [Compound 7] too.
Outgoing: 1.01 to 3 µM

Incoming: Can you handle CN(CCN)Cc1c[nH]nc1-c1ccc(N(C)Cc2ccccc2)nc1 [Compound 23] next?
Outgoing: 0.101 to 1 µM

Incoming: Consider next the molecule CC(C)Oc1ccc(-c2n[nH]cc2CN(C)CCN)cn1 [Compound 22] in the same way.
Outgoing: 0.101 to 1 µM

Incoming: Moving on to the next molecule: CC(C)CN(C)c1ccc(-c2n[nH]cc2CN(C)CCN)cn1 [Compound 21]
Outgoing: 1.01 to 3 µM

Incoming: Quick one: COc1ccncc1-c1n[nH]cc1CN(C)CCN [Compound 16]
Outgoing: 3.01 to 10 µM

Incoming: Can you check CN(CCN)Cc1c[nH]nc1-c1ccc(N2CCOCC2)nc1 [Compound 20] next?
Outgoing: 0.101 to 1 µM

Incoming: Would you mind doing CN(CCN)Cc1c[nH]nc1-c1ccc(NCc2ccccc2)nc1 [Compound 25] as well?
Outgoing: 1.01 to 3 µM

Incoming: Same again, this time with Cc1cncc(-c2n[nH]cc2CN(C)CCN)c1 [Compound 6]
Outgoing: 1.01 to 3 µM

Incoming: Same question, CN(CCN)Cc1c[nH]nc1-c1cncc(Cl)c1 [Compound 19] this time
Outgoing: 1.01 to 3 µM

====

Recorded below: IC50, system human PRMT3 (Homo sapiens).

Incoming: Name the recorded IC50 for `COc1ccncc1-c1n[nH]cc1CN(C)CCN` .
Outgoing: ≥ 10 µM

Incoming: Cool, now `COc1ncccc1-c1n[nH]cc1CN(C)CCN`
Outgoing: ≥ 10 µM

Incoming: Now the compound `CN(CCN)Cc1c[nH]nc1-c1ccncc1`
Outgoing: 1.01 to 3 µM

====

Measurement record for human PRMT1 (Homo sapiens); quantity recorded: IC50.

Incoming: // query IC50 value for entry COc1ncccc1-c1n[nH]cc1CN(C)CCN [Compound 15]
Outgoing: 101 to 1000 nM

Incoming: Request: CN(CCN)Cc1c[nH]nc1-c1cncc(Cl)c1 [Compound 19]
Outgoing: ≤ 100 nM

Incoming: Same question for CN(CCN)Cc1c[nH]nc1-c1ccncc1 [Compound 9] please.
Outgoing: ≤ 100 nM

Incoming: Same read-out for CN(CCN)Cc1c[nH]nc1-c1ccc(C(F)(F)F)nc1 [Compound 13] ?
Outgoing: ≤ 100 nM

Incoming: Entry CN(CCN)Cc1c[nH]nc1-c1ccc(N(C)Cc2ccccc2)nc1 [Compound 23] please
Outgoing: ≤ 100 nM

Incoming: Field entry: Cc1cc(-c2n[nH]cc2CN(C)CCN)cnc1Cl [Compound 10]
Outgoing: ≤ 100 nM

Incoming: Also CN(CCN)Cc1c[nH]nc1-c1ccc(C#N)nc1 [Compound 28] , if possible.
Outgoing: ≤ 100 nM

Incoming: Entry to check: CC(C)CN(C)c1ccc(-c2n[nH]cc2CN(C)CCN)cn1 [Compound 21]
Outgoing: ≤ 100 nM

Incoming: Cool, now Cc1cncc(-c2n[nH]cc2CN(C)CCN)c1 [Compound 6]
Outgoing: ≥ 10000 nM

Incoming: // repeat for CNCCN(C)Cc1c[nH]nc1-c1ccc(N(C)C(C)C)nc1 [Compound 33] and report
Outgoing: ≤ 100 nM

Incoming: Again, but for Cc1ccncc1-c1n[nH]cc1CN(C)CCN [Compound 17]
Outgoing: 101 to 1000 nM

====

# IC50 measurements, system: human PRMT6 (Homo sapiens, UniProt Q96LA8)
# Sequence (Q96LA8 with tags, fused parts or gaps): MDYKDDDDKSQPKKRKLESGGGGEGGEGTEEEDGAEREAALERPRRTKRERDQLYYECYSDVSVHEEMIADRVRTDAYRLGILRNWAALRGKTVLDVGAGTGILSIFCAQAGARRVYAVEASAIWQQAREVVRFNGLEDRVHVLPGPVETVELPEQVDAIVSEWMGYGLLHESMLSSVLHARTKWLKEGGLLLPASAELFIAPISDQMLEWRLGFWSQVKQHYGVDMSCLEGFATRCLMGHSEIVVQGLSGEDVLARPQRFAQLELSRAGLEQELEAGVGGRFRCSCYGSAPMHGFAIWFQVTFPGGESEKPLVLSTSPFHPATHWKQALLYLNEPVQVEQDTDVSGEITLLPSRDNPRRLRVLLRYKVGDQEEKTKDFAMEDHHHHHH

Incoming: Using the record for COc1cc(-c2n[nH]cc2CN(C)CCN)c(Cl)cn1 [Compound 12] , report its IC50.
Outgoing: 0.101 to 1 µM

Incoming: Please do the same for CNCCN(C)Cc1c[nH]nc1-c1ccc(N)nc1 [Compound 3] as well.
Outgoing: ≤ 0.1 µM

Incoming: Next molecule: CNCCN(C)Cc1c[nH]nc1-c1ccc(O)nc1 [Compound 2]
Outgoing: 1.01 to 3 µM

Incoming: Quick one: CCN(CC)c1ccc(-c2n[nH]cc2CN(C)CCN)cn1 [Compound 24]
Outgoing: 0.101 to 1 µM

Incoming: What do we get for CNCCN(C)Cc1c[nH]nc1-c1ccc(N(C)C(C)C)nc1 [Compound 33] ?
Outgoing: 0.101 to 1 µM

Incoming: Similarly, CNCCN(C)Cc1c[nH]nc1-c1ccc(N(C)CC(C)C)nc1 [Compound 32] ?
Outgoing: 0.101 to 1 µM

Incoming: Then this molecule: CN(CCN)Cc1c[nH]nc1-c1cncc(Cl)c1 [Compound 19]
Outgoing: ≤ 0.1 µM

Incoming: Continue with CC(C)CNc1ccc(-c2n[nH]cc2CN(C)CCN)cn1 [Compound 26]
Outgoing: ≤ 0.1 µM

Incoming: Please do the same for CNCCN(C)Cc1c[nH]nc1-c1ccc(N(CC(C)C)CC(C)C)nc1 [Compound 31] as well.
Outgoing: 1.01 to 3 µM

Incoming: Also need CN(CCN)Cc1c[nH]nc1-c1ccc(N(C)Cc2ccccc2)nc1 [Compound 23] , thanks.
Outgoing: ≤ 0.1 µM

Incoming: Now consider CNCCN(C)Cc1c[nH]nc1-c1ccc(OCC(C)C)nc1 [Compound 35] .
Outgoing: ≤ 0.1 µM

Incoming: Field entry: CCN(CCC(C)C)c1ccc(-c2n[nH]cc2CN(C)CCNC)cn1 [Compound 34]
Outgoing: 0.101 to 1 µM

Incoming: Same lookup for CN(CCN)Cc1c[nH]nc1-c1cnccc1C(F)(F)F [Compound 29] , please.
Outgoing: 0.101 to 1 µM

Incoming: Would you mind doing COc1ncccc1-c1n[nH]cc1CN(C)CCN [Compound 15] as well?
Outgoing: 0.101 to 1 µM

Incoming: Continue with CCN(CC(C)C)c1ccc(-c2n[nH]cc2CN(C)CCNC)cn1 [Compound 36]
Outgoing: 1.01 to 3 µM

The measured values listed here are drawn from patent US9440950B2.
